Study target: UniProt Q9BY41
Sequence (Q9BY41 whole entry): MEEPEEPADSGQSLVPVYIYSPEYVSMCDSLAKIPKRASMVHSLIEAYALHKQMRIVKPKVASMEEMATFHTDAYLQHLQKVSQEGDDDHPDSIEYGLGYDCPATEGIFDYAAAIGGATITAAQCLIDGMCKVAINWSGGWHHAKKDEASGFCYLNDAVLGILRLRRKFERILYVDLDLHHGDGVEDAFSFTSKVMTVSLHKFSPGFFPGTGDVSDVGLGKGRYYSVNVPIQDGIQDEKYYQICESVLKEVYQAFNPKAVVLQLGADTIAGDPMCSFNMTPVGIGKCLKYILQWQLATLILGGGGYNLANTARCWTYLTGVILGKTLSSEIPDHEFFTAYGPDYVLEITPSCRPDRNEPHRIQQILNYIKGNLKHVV
pIC50: −log10 of the molar value.
Assay endpoint: pIC50

Assign pIC50 to the following record: O=C(NC(c1ccccc1)c1ccccc1)c1cc(-c2cc3ccccc3o2)nc2ccccc12
< 3.70

###

Study target: Histone deacetylase 11 (Homo sapiens)
Sequence (Q96DB2 whole entry): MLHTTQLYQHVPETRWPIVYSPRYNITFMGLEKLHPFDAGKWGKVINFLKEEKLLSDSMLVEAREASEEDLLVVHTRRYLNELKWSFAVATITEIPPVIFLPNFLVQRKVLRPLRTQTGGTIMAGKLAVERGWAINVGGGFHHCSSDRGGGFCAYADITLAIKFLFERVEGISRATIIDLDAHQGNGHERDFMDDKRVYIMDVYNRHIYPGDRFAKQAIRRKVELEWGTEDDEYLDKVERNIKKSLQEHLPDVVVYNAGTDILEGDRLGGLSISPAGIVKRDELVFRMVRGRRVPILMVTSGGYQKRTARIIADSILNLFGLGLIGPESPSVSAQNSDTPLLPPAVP
Assay endpoint: IC50

Tell us which IC50 value is on record for O=C(NC(c1ccccc1)c1ccccc1)c1cc(-c2cc3ccccc3o2)nc2ccccc12
> 200 µM

###

Study target: NAD-dependent protein deacylase sirtuin-6 (Homo sapiens)
Test protocol: Activation of N-terminal his-tagged human SIRT6 expressed in Escherichia coli M15 [pREP4] assessed as increase in peptide demyristoylation at 20 uM incubated for 120 mins using Ac-EALPKK(Myr)-AMC substrate by FDL assay relative to control
Label scheme for Activity: lower than 200% is Not met, 200% and above is Met.

Reference set (5 entries):
COc1ccc(-c2cc(C(=O)NC34CC5CC(CC(O)(C5)C3)C4)c3ccccc3n2)cc1OC :: Not met
Cc1ccc(-c2cc(C(=O)Nc3cc(C(F)(F)F)ccc3Cl)c3ccccc3n2)s1 :: Not met
Cc1ccc(CNC(=O)c2cc(-c3cc4ccccc4o3)nc3ccccc23)cc1 :: Met
COc1ccc(-c2cc(C(=O)Nc3ccc(C(F)(F)F)cc3Cl)c3ccccc3n2)cc1OC :: Not met
COc1ccc(NC(=O)c2cc(-c3ccc(OC)c(OC)c3)nc3ccccc23)c([N+](=O)[O-])c1 :: Not met

Entry COc1ccc(-c2cc(C(=O)Nc3nc(-c4ccc(Cl)cc4)cs3)c3ccccc3n2)cc1OC : is its Activity no less than 200%?
Not met

Quick check: does O=C(Nc1ccc(C(F)(F)F)cc1)c1cc(-c2cc3ccccc3o2)nc2ccccc12 have Activity greater than or equal to 200%?
Met

Hi, just wondering whether COc1ccc(-c2cc(C(=O)Nc3ccccc3Br)c3ccccc3n2)cc1OC shows Activity of 200% or higher.
Not met

Would you say O=C(Nc1cc(C(F)(F)F)ccc1Cl)c1cc(-c2ccc3c(c2)OCCO3)nc2ccccc12 shows Activity at minimum 200%?
Not met

###

Study target: UniProt:Q9NXA8
Sequence (Q9NXA8 whole entry): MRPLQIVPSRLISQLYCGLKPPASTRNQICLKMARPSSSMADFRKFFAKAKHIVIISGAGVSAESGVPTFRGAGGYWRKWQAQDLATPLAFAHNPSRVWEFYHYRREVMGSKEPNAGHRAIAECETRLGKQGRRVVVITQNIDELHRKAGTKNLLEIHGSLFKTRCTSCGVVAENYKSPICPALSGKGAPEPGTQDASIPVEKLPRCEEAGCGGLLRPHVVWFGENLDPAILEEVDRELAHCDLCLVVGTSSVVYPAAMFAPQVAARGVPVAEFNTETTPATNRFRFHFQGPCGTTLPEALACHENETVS
pIC50: −log10 of the molar value.
Assay endpoint: pIC50

State its pIC50: O=C(NC(c1ccccc1)c1ccccc1)c1cc(-c2cc3ccccc3o2)nc2ccccc12
< 3.70

###

System: BXPC-3
Test protocol: Antiproliferative activity against human BxPC3 cells assessed as reduction in cell viability incubated for 72 hrs by MTT assay
Assay type: functional, cell-based
Stated conditions: BXPC-3, 72 h
Assay endpoint: IC50 (µM)
Give the number; µM is assumed, so skip it.

O=C(NC(c1ccccc1)c1ccccc1)c1cc(-c2cc3ccccc3o2)nc2ccccc12 :: 8.27

Attention now shifts to the item below.
// fetch IC50 given entry COC(=O)c1cc(NS(=O)(=O)c2cc(Cl)cc(Cl)c2)ccc1S(=O)(=O)Nc1cc(Br)c(F)cc1C
58

###

Test protocol: Half life in Sprague-Dawley rat at 10 mg/kg, po after 0.083 to 24 hrs by LC-MS/MS analysis
Format: ADME, organism-based
Stated conditions: in vivo
Assay endpoint: half-life
Please answer using a numeric value trailed by its unit.

Please supply the value of reported half-life for the item O=C(NC(c1ccccc1)c1ccccc1)c1cc(-c2cc3ccccc3o2)nc2ccccc12
7.52 h

###

Test protocol: Tmax in Sprague-Dawley rat at 10 mg/kg, po after 0.083 to 24 hrs by LC-MS/MS analysis
Assay type: ADME, organism-based
Stated conditions: in vivo
Assay endpoint: Tmax
Answers without a unit are incomplete; give the number and then its unit.

Please look at this molecule and report its Tmax: O=C(NC(c1ccccc1)c1ccccc1)c1cc(-c2cc3ccccc3o2)nc2ccccc12
2 h

###

Test protocol: Tmax in Sprague-Dawley rat at 2 mg/kg, iv after 0.25 to 24 hrs by LC-MS/MS analysis
Assay type: ADME, organism-based
Stated conditions: in vivo
Assay endpoint: Tmax (min)
Note: unit min is implicit; provide only the numeric part.

Fill in reported Tmax for this entry: O=C(NC(c1ccccc1)c1ccccc1)c1cc(-c2cc3ccccc3o2)nc2ccccc12
4.8

###

Study target: NAD-dependent protein deacylase sirtuin-6 (Homo sapiens, UniProt Q8N6T7)
Sequence (Q8N6T7 whole entry): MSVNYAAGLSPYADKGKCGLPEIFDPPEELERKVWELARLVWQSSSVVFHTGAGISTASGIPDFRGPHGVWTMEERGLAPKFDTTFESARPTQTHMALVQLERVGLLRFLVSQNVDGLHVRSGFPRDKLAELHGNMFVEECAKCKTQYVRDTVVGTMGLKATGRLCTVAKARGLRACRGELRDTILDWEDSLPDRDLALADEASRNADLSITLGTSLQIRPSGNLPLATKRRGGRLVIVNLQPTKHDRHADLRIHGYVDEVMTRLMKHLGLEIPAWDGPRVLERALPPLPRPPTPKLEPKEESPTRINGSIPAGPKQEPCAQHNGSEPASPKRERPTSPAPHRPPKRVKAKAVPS
Test protocol: Binding affinity to N-terminal his-tagged human SIRT6 expressed in Escherichia coli M15 [pREP4] by ITC assay
Assay endpoint: pKd
Lab note: report pKd as minus log10 of the concentration in molar units, number only.

Output pKd of O=C(NC(c1ccccc1)c1ccccc1)c1cc(-c2cc3ccccc3o2)nc2ccccc12
5.05

###

Below, each entry is listed with its recorded Activity.
Study target: NAD-dependent protein deacylase sirtuin-6 (Homo sapiens, UniProt Q8N6T7)
Test protocol: Activation of N-terminal his-tagged human SIRT6 expressed in Escherichia coli M15 [pREP4] assessed as increase in peptide demyristoylation at 20 uM incubated for 120 mins using Ac-EALPKK(Myr)-AMC substrate by FDL assay relative to control
Only the number, expressed in %, is required.

Known Activity results, listed for orientation:
COc1ccc(-c2cc(C(=O)Nc3cc(S(N)(=O)=O)ccc3C)c3ccccc3n2)cc1OC :: 95.5
O=C(Nc1cc(C(F)(F)F)ccc1Cl)c1cc(C2CCCCC2)nc2ccccc12 :: 82.4
Cc1ccc(C)c(NC(=O)c2cc(-c3cc4ccccc4o3)nc3ccccc23)c1 :: 349
CCOc1ccc(NC(=O)c2cc(-c3ccc(OC)c(OC)c3)nc3ccccc23)cc1 :: 166
O=C(Nc1ccc(Oc2ccccc2)cc1)c1cc(-c2cc3ccccc3o2)nc2ccccc12 :: 118
CCN(CC)c1ccc(NC(=O)c2cc(-c3ccc(OC)c(OC)c3)nc3ccccc23)cc1 :: 83.3

Using known records, supply Activity for O=C(Nc1cc(C(F)(F)F)ccc1Cl)c1cc(-c2cc3ccccc3o2)nc2ccccc12
762

Determine its reported Activity: COc1cccc2cc(-c3cc(C(=O)Nc4cc(C(F)(F)F)ccc4Cl)c4ccccc4n3)oc12
321

Give me measured Activity, please, for this compound: Cc1cc(C)c(NC(=O)c2cc(-c3cc4ccccc4o3)nc3ccccc23)c(C)c1
315

###

Study target: UniProt:Q8N6T7
Test protocol: Activation of N-terminal his-tagged human SIRT6 expressed in Escherichia coli M15 [pREP4] assessed as increase in peptide demyristoylation at 20 uM incubated for 120 mins using Ac-EALPKK(Myr)-AMC substrate by FDL assay relative to control
Assay endpoint: Activity (%)
Note: unit % is implicit; provide only the numeric part.

# example entries with known answers
CCOc1ccccc1NC(=O)c1cc(-c2ccc(OC)c(OC)c2)nc2ccccc12 :: 95.2
COc1ccc(-c2cc(C(=O)Nc3cccc(Cl)c3)c3ccccc3n2)cc1OC :: 104
COc1ccc(-c2cc(C(=O)Nc3cc(C(C)C)ccc3C)c3ccccc3n2)cc1OC :: 131
COc1ccc(-c2cc(C(=O)Nc3ccccc3F)c3ccccc3n2)cc1OC :: 92.4
CCOc1ccc(NC(=O)c2cc(-c3cc4ccccc4o3)nc3ccccc23)cc1 :: 109
O=C(Nc1cc(C(F)(F)F)ccc1Cl)c1cc(-c2ccco2)nc2ccccc12 :: 141
COc1ccc(-c2cc(C(=O)NCc3ccc(Cl)c(Cl)c3)c3ccccc3n2)cc1OC :: 260
O=C(Nc1cc(C(F)(F)F)ccc1Cl)c1cc(-c2cccnc2)nc2ccccc12 :: 85.6

Respond only with Activity recorded for COc1ccc(-c2cc(C(=O)Nc3cc(C(F)(F)F)ccc3Cl)c3ccccc3n2)cc1F
91.2

Answer with reported Activity of COc1cc(NC(=O)c2cc(-c3ccc(OC)c(OC)c3)nc3ccccc23)cc(OC)c1
103

###

Study target: UniProt Q8N6T7
Test protocol: Activation of N-terminal his-tagged human SIRT6 expressed in Escherichia coli M15 [pREP4] assessed as increase in deacetylation activity incubated for 2 hrs using Ac-RYQK(Ac)-AMC substrate by FDL assay relative to control
Assay endpoint: pEC50
pEC50 is a log-scale quantity: -log10 of the concentration expressed in molar.

Write down pEC50 measured for item O=C(NC(c1ccccc1)c1ccccc1)c1cc(-c2cc3ccccc3o2)nc2ccccc12
5.27

###

Study target: NAD-dependent protein deacylase sirtuin-6 (Homo sapiens, UniProt Q8N6T7)
Test protocol: Activation of N-terminal his-tagged human SIRT6 expressed in Escherichia coli M15 [pREP4] assessed as increase in peptide demyristoylation incubated for 120 mins using Ac-EALPKK(Myr)-AMC substrate by FDL assay relative to control
Assay endpoint: EC1.5

Specify the recorded EC1.5 for COc1ccc(-c2cc(C(=O)Nc3cccc(Cl)c3Cl)c3ccccc3n2)cc1OC , system: NAD-dependent protein deacylase sirtuin-6 (Homo sapiens, UniProt Q8N6T7).
5.97 µM

Enter EC1.5 (test system NAD-dependent protein deacylase sirtuin-6 (Homo sapiens, UniProt Q8N6T7)) for O=C(NCc1ccc(Cl)c(Cl)c1)c1cc(-c2cc3ccccc3o2)nc2ccccc12
5.91 µM

Param request: EC1.5 | system NAD-dependent protein deacylase sirtuin-6 (Homo sapiens, UniProt Q8N6T7) | item O=C(NC(c1ccccc1)c1ccccc1)c1cc(-c2cc3ccccc3o2)nc2ccccc12
0.58 to 0.72 µM

Please tell me the measured EC1.5 for COc1cccc2cc(-c3cc(C(=O)Nc4cc(C(F)(F)F)ccc4Cl)c4ccccc4n3)oc12 ; system: NAD-dependent protein deacylase sirtuin-6 (Homo sapiens, UniProt Q8N6T7).
5.96 µM

Name the recorded EC1.5 of COc1ccc(-c2cc(C(=O)NC(c3ccccc3)c3ccccc3)c3ccccc3n2)cc1OC , assay system NAD-dependent protein deacylase sirtuin-6 (Homo sapiens, UniProt Q8N6T7).
5.97 µM
